test system: NCI-H460 lung; assay: NCI-60 one-dose screen, 48 h (100 = growth as untreated, 0 = no growth, -100 = all killed); conditions: 10 µM unless noted
Compounds without any hit were thinned out: in the full panel of roughly 83,000, 20% have a hit.
Let's look at some compounds and their measured growth.
The figure you give is taken to be in %; do not add the unit.

Field: example entries. Status: answers known.
[[record]]
compound = "C#CCOc1cccc(Nc2ncnc3c(NC(=O)CCl)cccc23)c1"
outputunit = "%"
resultnumber = 51.2

[[record]]
compound = "C=C1CC[C@@H]2[C@](C)(COC(C)=O)[C@H](OC(C)=O)CC[C@@]2(C)[C@@H]1CC(Nc1ccc(S(=O)(=O)Nc2nccc(C)n2)cc1)C1=CCOC1=O (some centres undefined)"
outputunit = "%"
resultnumber = 46.9

[[record]]
compound = "CCOC(=O)CCC(=O)P(=O)(O)O"
outputunit = "%"
resultnumber = 113

[[record]]
compound = "CC1(C)CC(=O)C2=C(C1)OC(C(=O)c1ccccc1)C2c1cccc(Oc2ccccc2)c1 (centres undefined)"
outputunit = "%"
resultnumber = 51.4

[[record]]
compound = "CC1=C([Se]CC(OC(=O)[C@@H](CO)NC(=O)OC(C)(C)C)C(=O)NCCCCCC(=O)OCc2ccccc2)C(=O)c2ccccc2C1=O (some centres undefined)"
outputunit = "%"
resultnumber = -4.97


**Query** Which measured growth value corresponds to "COc1cc(OCc2cccc(-c3ccc4c(c3)OCCO4)c2C)cc(OC)c1C=O" ?
**Result** 72.2

**Query** If you can, please state the reported growth value of "COc1ccc2c(c1)C(c1c[nH]c3ccccc13)(c1c[nH]c3ccccc13)CCO2" .
**Result** 47.4

**Query** Query (compound): "O=C1Nc2ccccc2/C1=C/c1cccn1CCCCCCn1c2ccccc2c(=O)c2ccccc21" ; field requested: growth
**Result** 90.7

**Query** Entry "CC(C)(C#N)c1cc(C(=O)Nc2cc(Nc3ncccc3-c3ncnc4nc[nH]c34)ccc2F)cc(C(F)(F)F)c1" : reported growth = ?
**Result** 35.9

**Query** So what's the measured growth for this one? "Cn1cc(-c2ccc3occ(-c4cccc(-c5ccncc5)c4)c3n2)cn1"
**Result** 13.5

**Query** Dear colleague, I am looking for the recorded growth of the following compound: "CN(C)c1ccc(Cc2cc(-c3ccccc3)nn(C/C(=N/O)c3ccccc3)c2=O)cc1"
**Result** 42.6

**Query** # lookup: growth of "CSc1nc(CC(C)C)c(C#N)c(=O)n1C"
**Result** 83.3

**Query** Would you mind telling me what growth value was observed for "CC(=O)O[C@H]1CC[C@@]2(C)C(=CC[C@@H]3[C@@H]2CC[C@]2(C)C(Cl)=C(c4nc5ccc(Cl)cn5c4NC(C)(C)C)C[C@@H]32)C1" ?
**Result** 99.9

**Query** For the compound shown here, "COc1ccc(Cn2cc3c(c2)-c2oncc2CC3)cc1" , give the reported growth.
**Result** 39.9

**Query** Could you share which growth value was measured for "CN(C)CCOc1nc2c3cc([N+](=O)[O-])ccc3nn2c2ccccc12" ?
**Result** 4.99

**Query** Please report the recorded growth for "N=C(N)c1ccc(-c2ccc(-c3ccc(Cl)cc3Cl)s2)nc1" .
**Result** -60.1

**Query** Using the record for "O=C(CSc1nc(-c2ccccc2)cn1-c1ccc(Cl)cc1)c1ccc([N+](=O)[O-])cc1" , report its growth.
**Result** 79.5

**Query** Entry O=C(OCC(O)C(=O)NC12CC3CC(CC(C3)C1)C2)c1cccc(Br)c1 (centres undefined) has what growth?
**Result** 108

**Query** Suppose we examine the compound "O=C1/C(=C/c2ccccc2)COc2ccc(O)cc21" ; what growth value has been reported?
**Result** 103
